Kd for assorted binders
- tgt: P1156:G4S:P1243 two-warhead evasin (Ixodes ricinus | Amblyomma americanum, UniProt V5HBW0;A0A0C9S461)
- test: BLI
Give your result in nM as a bare value.

These recorded examples may help you get a feel for the data.
binder | attribute_measured | observed_measurement
CCL24 (protein) VVIPSPCCMFFVSKRIPENRVVSYQLSSRSTCLKAGVIFTTKKGQQFCGDPKQEWVQRYMKNLDAKQKKASPRARAVAVKGPVQRYPGNQTTC | Kd | 4.5
CCL19 (protein) GTNDAEDCCLSVTQKPIPGYIVRNFHYLLIKDGCRVPAVVFTTLRGRQLCAPPDQPWVERIIQRLQRTSAKMKRRSS | Kd | 3
CCL21 (ligand) SDGGAQDCCLKYSQRKIPAKVVRSYRKQEPSLGCSIPAILFLPRKRSQAELCADPKELWVQQLMQHLDKTPSPQKPAQGCRKDRGASKTGKKGKGSKGCKRTERSQTPKGP | Kd | 29
CCL4L1 (protein) APMGSDPPTACCFSYTARKLPRNFVVDYYETSSLCSQPAVVFQTKRGKQVCADPSESWVQEYVYDLELN | Kd | 15

The record that follows has no Kd shown yet.
Task item: Which measured Kd value corresponds to CCL3L1 (ligand) APLAADTPTACCFSYTSRQIPQNFIADYFETSSQCSKPSVIFLTKRGRQVCADPSEEWVQKYVSDLELSA ?
Reply: 5.3
